Assay: in vitro
Type: cell-based, human
Details: human, hl60 cells, 1.0 μg/ml; read-out: Suppression
Listed next: entries and their corresponding cytotoxicity at 72 h.

| MOLECULE | cytotoxicity at 72 h [%] |
| --- | --- |
| CCCCCCC(=O)CCCCCCCCCC(O)C(O)C(N)(CO)C(=O)O (centres unmarked) [Example 5] | 11.9 |
| CCCCCCC(=O)CCCCCCCCCC1OC(=O)C(N)(CO)C1O (centres unmarked) [Example 7] | 18.2 |
| CCCCCCC(O)CCCCCC/C=C/CC1OC(=O)C(N)(CO)C1O (centres unmarked) [Example 8] | 14.8 |
| CCCCCCC(=O)CCCCCC/C=C/CC1OC(=O)C(N)(CO)C1O (centres unmarked) [Example 4] | 13.3 |
| CCCCCCC(=O)CCCCCC/C=C/CC1OC(=O)C(CO)(NC(C)=O)C1O (centres unmarked) [Example 11] | 12.6 |

* * *

Test: in vitro
Assay type: cell-based, human
Conditions: human, ccrf-cem cells, 100.0 μg/ml; read-out: Suppression

| MOLECULE | UNIT | cytotoxicity at 72 h |
| --- | --- | --- |
| CCCCCCC(=O)CCCCCC/C=C/CC1OC(=O)C(N)(CO)C1O (stereo not shown) | % | 99.4 |

* * *

System: human allogenic MLR (peripheral blood lymphocytes)
Test: human allogenic MLR-suppressive activity
Type: cell-based
Settings: Homo sapiens, Lymphocyte, donor A/donor B; 0.001 μg/ml; read-out: Suppression
RESULT_TYPE: inhibition at 0.001 µg/mL (%)

| COMPOUND | RESULT_TYPE | REPORTED_MEASUREMENT |
| --- | --- | --- |
| CCCCCCC(=O)CCCCCC/C=C/CC1OC(=O)C(N)(CO)C1O (stereo not shown) [Example 4] | inhibition at 0.001 µg/mL | 47.4 |
| CCCCCCC(O)CCCCCC/C=C/CC(O)C(O)C(N)(CO)C(=O)O (stereo not shown) [Example 6] | inhibition at 0.001 µg/mL | 56.2 |
| CCCCCCC(=O)CCCCCCCCCC(O)C(O)C(N)(CO)C(=O)O (stereo not shown) [Example 5] | inhibition at 0.001 µg/mL | 42.8 |
| CCCCCCC(=O)CCCCCC/C=C/CC(O)C(O)C(N)(CO)C(=O)O (stereo not shown) [Example 1] | inhibition at 0.001 µg/mL | 77.7 |

* * *

Assay: in vitro
Format: cell-based, human
Conditions: human, u937 cells, 0.1 μg/ml; read-out: Suppression
Listed next: entries and their corresponding cytotoxicity at 72 h.
RESULT_TYPE: cytotoxicity at 72 h

| COMPOUND | REPORTED_MEASUREMENT |
| --- | --- |
| CCCCCCC(=O)CCCCCCCCCC(O)C(O)C(N)(CO)C(=O)O (centres unmarked) [Example 5] | 4.5% |
| CCCCCCC(=O)CCCCCCCCCC1OC(=O)C(N)(CO)C1O (centres unmarked) [Example 7] | 0% |
| CCCCCCC(O)CCCCCCCCCC1OC(=O)C(N)(CO)C1O (centres unmarked) [Example 10] | 6.5% |
| CCCCCCC(=O)CCCCCC/C=C/CC1OC(=O)C(CO)(NC(C)=O)C1O (centres unmarked) [Example 11] | 0% |
| CCCCCCC(O)CCCCCC/C=C/CC1OC(=O)C(N)(CO)C1O (centres unmarked) [Example 8] | 0% |
| CCCCCCC(=O)CCCCCC/C=C/CC1OC(=O)C(N)(CO)C1O (centres unmarked) [Example 4] | 16.1% |
| CCCCCCC(O)CCCCCCCCCC(O)C(O)C(N)(CO)C(=O)O (centres unmarked) [Example 9] | 0% |
| CCCCCCC(O)CCCCCC/C=C/CC(O)C(O)C(N)(CO)C(=O)O (centres unmarked) [Example 6] | 14% |

* * *

Listed next: entries and their corresponding cytotoxicity at 72 h.
Experiment: in vitro
Type: cell-based, human
Settings: human, pc-14 cells, 10.0 μg/ml; read-out: Suppression

| COMPOUND | UNIT | cytotoxicity at 72 h |
| --- | --- | --- |
| CCCCCCC(O)CCCCCC/C=C/CC(O)C(O)C(N)(CO)C(=O)O (stereo not shown) | % | 25.9 |
| CCCCCCC(O)CCCCCCCCCC(O)C(O)C(N)(CO)C(=O)O (stereo not shown) | % | 21.1 |
| CCCCCCC(=O)CCCCCCCCCC1OC(=O)C(N)(CO)C1O (stereo not shown) | % | 33.5 |
| CCCCCCC(=O)CCCCCC/C=C/CC1OC(=O)C(N)(CO)C1O (stereo not shown) | % | 0 |

* * *

Test: in vitro
Assay type: cell-based, human
Conditions: human, k562 cells, 10.0 μg/ml; read-out: Suppression

| MOLECULE | cytotoxicity at 72 h (%) |
| --- | --- |
| CCCCCCC(=O)CCCCCCCCCC1OC(=O)C(N)(CO)C1O (centres unmarked) [Example 7] | 21.6 |
| CCCCCCC(=O)CCCCCC/C=C/CC1OC(=O)C(CO)(NC(C)=O)C1O (centres unmarked) [Example 11] | 34.5 |
| CCCCCCC(=O)CCCCCCCCCC(O)C(O)C(N)(CO)C(=O)O (centres unmarked) [Example 5] | 6.7 |
| CCCCCCC(O)CCCCCCCCCC1OC(=O)C(N)(CO)C1O (centres unmarked) [Example 10] | 19.2 |
| CCCCCCC(O)CCCCCCCCCC(O)C(O)C(N)(CO)C(=O)O (centres unmarked) [Example 9] | 17.7 |

* * *

Experiment: in vitro
Assay type: cell-based, human
Conditions: human, hl60 cells, 10.0 μg/ml; read-out: Suppression
Listed next: entries and their corresponding cytotoxicity at 72 h.

| COMPOUND | cytotoxicity at 72 h, % |
| --- | --- |
| CCCCCCC(O)CCCCCC/C=C/CC(O)C(O)C(N)(CO)C(=O)O (stereo not drawn) | 17 |
| CCCCCCC(O)CCCCCC/C=C/CC1OC(=O)C(N)(CO)C1O (stereo not drawn) | 19.9 |
| CCCCCCC(=O)CCCCCC/C=C/CC1OC(=O)C(CO)(NC(C)=O)C1O (stereo not drawn) | 27 |
